- System: SPI1 type III protein secretion of SopE'-'Bla by Salmonella enterica
- measurement-protocol: Primary assay: Type III protein secretion of the chimeric SopE'-'Bla polypeptide by Salmonella enterica
- Type: cell-based
- condition-context: read-out: SopE IC50(uM)
observation-type: log10 of IC50 (log10 of the value in µM)

compound="O=C(N[C@H](Cc1ccc(Cl)cc1)C(=O)O)c1cc(N2CCc3ccccc3C2)nc(-c2ccc(C(F)(F)F)cc2)n1 [Compound 8]" test_result=0.30
compound="O=C(NC(Cc1ccc(Cl)cc1)C(=O)O)c1cc(N2CCN(c3nccc(C(F)(F)F)n3)CC2)nc(-c2ccc([N+](=O)[O-])cc2)n1 (stereo not drawn) [Compound 53]" test_result=0.08
compound="CC1CCN(c2cc(C(=O)NC(Cc3ccc(Cl)cc3)C(=O)O)nc(-c3ccc(-c4ccccc4)cc3)n2)CC1 (stereo not drawn) [Compound 42]" test_result=0.68
compound="O=C(N[C@@H](COCc1ccccc1)C(=O)O)c1cc(N2CCCCC2)nc(N2CCC(c3ccccc3)CC2)n1 [Compound 28]" test_result=0.72
compound="CC1CCN(c2cc(C(=O)NC(Cc3ccc(Cl)cc3)C(=O)O)nc(-c3ccc(Oc4ccccc4)cc3)n2)CC1 (stereo not drawn) [Compound 39]" test_result=0.18
compound="CC1CCN(c2cc(C(=O)N[C@@H](CSCc3ccccc3)C(=O)O)nc(-c3ccc(-c4ccccc4)cc3)n2)CC1 [Compound 40]" test_result=0.71
compound="CC1CCN(c2cc(C(=O)N[C@@H](COCc3ccccc3)C(=O)O)nc(-c3ccc(-c4ccccc4)cc3)n2)CC1 [Compound 41]" test_result=0.38
compound="CN1CCN(c2nc(C(=O)N[C@@H](CSCc3ccccc3)C(=O)O)cc(N3CCN(c4nccc(C(F)(F)F)n4)CC3)n2)CC1 [Compound 44]" test_result=1.93
compound="O=C(N[C@@H](CSCc1ccccc1)C(=O)O)c1cc(N2CCN(c3ccccc3)CC2)nc(-c2ccc(Cl)cc2)n1 [Compound 24]" test_result=0.74
compound="Cc1cc(C(=O)NC(CSCc2ccccc2)C(=O)O)nc(-c2ccc(-c3ccccc3)cc2)n1 (stereo not drawn) [Compound 35]" test_result=1.25
compound="O=C(N[C@@H](COCc1ccccc1)C(=O)O)c1cc(N2CCN(c3nccc(C(F)(F)F)n3)CC2)nc(-c2ccoc2)n1 [Compound 60]" test_result=1.21
compound="CC1CCN(c2cc(C(=O)N[C@@H](CSCc3ccccc3)C(=O)O)nc(-c3ccc(Oc4ccccc4)cc3)n2)CC1 [Compound 37]" test_result=0.23
compound="CC1CCN(c2nc(C(=O)NC(Cc3ccc(Cl)cc3)C(=O)O)cc(N3CCN(c4nccc(C(F)(F)F)n4)CC3)n2)CC1 (stereo not drawn) [Compound 48]" test_result=0.11
compound="O=C(N[C@@H](COCc1ccccc1)C(=O)O)c1cc(N2CCN(c3nccc(C(F)(F)F)n3)CC2)nc(-c2ccc(F)cc2)n1 [Compound 54]" test_result=0.11
compound="O=C(N[C@H](Cc1ccc(Cl)cc1)C(=O)O)c1cc(N2CCCc3ccccc32)nc(-c2ccc(Oc3ccccc3)cc2)n1 [Compound 16]" test_result=0.79
compound="Cc1cc(C(=O)N[C@@H](COCc2ccccc2)C(=O)O)nc(-c2ccc(-c3ccccc3)cc2)n1 [Compound 36]" test_result=1.51
compound="O=C(N[C@@H](CSCc1ccccc1)C(=O)O)c1cc(N2CCN(c3ccccc3)CC2)nc(-c2ccc(F)c(F)c2)n1 [Compound 19]" test_result=0.81
compound="O=C(NC(Cc1ccc(Cl)cc1)C(=O)O)c1cc(-c2ccc(C(F)(F)F)cc2)nc(N2CCN(c3ccccn3)CC2)n1 (stereo not drawn) [Compound 43]" test_result=0.91
compound="O=C(N[C@H](Cc1ccc(Cl)cc1)C(=O)O)c1cc(N2CCc3ccccc3C2)nc(-c2ccc(F)cc2)n1 [Compound 9]" test_result=0.90
compound="CN(C)c1ccc(-c2nc(C(=O)N[C@@H](CSCc3ccccc3)C(=O)O)cc(N3CCN(c4nccc(C(F)(F)F)n4)CC3)n2)cc1 [Compound 50]" test_result=1.30
compound="O=C(N[C@@H](CSCc1ccccc1)C(=O)O)c1cc(N2CCN(c3ccccc3)CC2)nc(-c2ccc(C(F)(F)F)cc2)n1 [Compound 23]" test_result=0.52
compound="O=C(N[C@H](Cc1ccc(Cl)cc1)C(=O)O)c1cc(N2CCc3ccccc3C2)nc(Cl)n1 [Compound 5]" test_result=1.51
compound="O=C(N[C@@H](COCc1ccccc1)C(=O)O)c1cc(N2CCN(c3nccc(C(F)(F)F)n3)CC2)nc(-c2ccc([N+](=O)[O-])cc2)n1 [Compound 51]" test_result=0.28
compound="O=C(N[C@H](Cc1ccc(Cl)cc1)C(=O)O)c1cc(N2CCC(c3ccccc3)CC2)nc(-c2ccc(C(F)(F)F)cc2)n1 [Compound 15]" test_result=0.56
compound="CN(C)c1ccc(-c2nc(C(=O)N[C@H](Cc3ccc(Cl)cc3)C(=O)O)cc(N3CCC(c4ccccc4)CC3)n2)cc1 [Compound 14]" test_result=0.26
compound="O=C(NC(Cc1ccc(Cl)cc1)C(=O)O)c1cc(N2CCN(c3nccc(C(F)(F)F)n3)CC2)nc(-c2ccc(F)cc2)n1 (stereo not drawn) [Compound 56]" test_result=0.34
compound="O=C(N[C@H](Cc1ccc(Cl)cc1)C(=O)O)c1cc(N2CCC(c3ccccc3)CC2)nc(-c2cccc(C(F)(F)F)c2)n1 [Compound 12]" test_result=0.15
